Origin of measurements: the DeepSol protein solubility set

- Test: soluble on expression in E. coli; label from the status in PepcDB or PDB records

# Entry sequence, soluble on expression in E. coli
records = [
    ("MGSDKIHHHHHHMSYTTNKQPQGYPYFVTSKLREDMIGELVAINDYSFIISNSNIKEINDVLYHIRQEEHNHYGMLLELLRKYDPMEMDAYLRVIAHTTLTPVKEYLTVNSGITDKLLLNYLREGAKGELEAIILYEQHLAEIPYSDIRETLQKIVYEEKEHLEELTLVLINYDKDKYGSIKK", "not soluble"),
    ("MKKYEIIFKKLEEDILKGHYQMGDYLPPEMELSQTYASSRDTVRKALQLLTKAGFIKTVQGRGSQIIKRERINFPVSQLTSYQELVKQLQMNVKTNVIAIDKLIVDEKLTKLTGFENKGLVWRITRQRVIDGVASILDTDYLDKALIPHMTREIAEHSIYDYLENQLKLDIAYAQKIITIDQVSQKDKILLDLDSENHVVSVKSKVYLSNQQQFQFTESRHKLEKFRFVDFARRHRD", "not soluble"),
    ("MGSDKIHHHHHHYGGDITYNNHNNFHVLHDRHHRSHHSRSNSRDSDEKWECRRLGVFNSPNPLTNPLLSAPKIAYFNRNGKEYAIAVCENPQIQILVGKSRGASPDFTQTRDYAVLSASSKSGLTFKCNRRHDRYEAVNLVTGSMARIEALACITVAQNDTAAVAIVNGIVGPLQAAGLHL", "not soluble"),
]

* * *

- Test: soluble on expression in E. coli; label from the status in PepcDB or PDB records

# Entry sequence, soluble on expression in E. coli
rows = [
    ("MKSMQDYRTIMTGNDAVAYGAKLARVKLISAYPITPQTTIVEKLASMIANDELDAKYVKVESEHSALATVVSSELAGVRSYTATSSHGLLYMHEMLHWASGQRLPIVMSVVNRAIGPPWNIWADQSDTMNQKDTGWMQVYCESNQEALDTIIMGYKIAENKDVLLPLMSMEDAFILSHTSEPVTIRDQESVNEYLPDLDLPFKINEEHPMGYGSYDTPDGSFMELKKDMVDSMQKAKRIIEDETRKFNEMFGTEYGGLIEKYRMEDADYAIIATGTIASTARYVVDILRKKGEKVGLIRIRYFRPFPYEEILSSLKYVKAAGVIDRSVSFSSGGPTYVEIVQGLYGKLNVPLSSFIAGIGGRDVRIQDIENIYEMLKSGNSGTYWINVKEVR", "not soluble"),
    ("MDLMEEMWISRPQRRMTKLSDLSDGSIARIKFYNANKEYTVDSFKIMFAEYQKSIYCNQEVIGVCHSISDYSYIVDYINNSHFRNELDIFTPEFDKKRTHHITSHKSDKDTLQVRVISNEGVIKSYDMSAIEITFEKMYHIIDKERNGYRSGQL", "not soluble"),
]

* * *

- Test: soluble on expression in E. coli; label from the status in PepcDB or PDB records
Result type: soluble on expression in E. coli

# Entry sequence, Result
data = [
    ("KESILAVLLYLFEYYFSENADLVRDRDSLQNSLIQVGFSPAEINKAFEWLDALAANRPTLTNPRVNGPVRVLHGPELDKLDVESRGFLLFLEQQGILNTEQRELVLDRAMALDQEELDLDDMKWVVLMVLFNQPGAEAAYAWMETQMFGNEPEQLH", "not soluble"),
    ("MGSDKIHHHHHHMSFGVNRDESSAFCQRAFEAENWRLAASAGLAPTLVAQSIDGRCYLSPLLEDGGWQQRYQEVPLSQITCDAAFFTSPGQTHAGSDREPDGLTHTTRLLLDLLLGLQALPVPANVKGFTTQWQDYETALDASQSHWARNPRWQEAYQALAAEFTEVEAAMARLDAMGLSCQYSHRDLTPHNLLCHQGKLFCIDFEYACASHPLWDLAAVLASHNLPGRERRDLMDAYLYAHPQLESSMSSRVVDAVALHWYFGAIWALLMAGQSGDDDYLCWFHRYLQLAKS", "not soluble"),
]

* * *

- Test: soluble on expression in E. coli; label from the status in PepcDB or PDB records
Result type: soluble on expression in E. coli

The cases that follow already have their soluble on expression in E. coli on record.
# Entry sequence, soluble on expression in E. coli
rows = [
    ("MASNSRSSISPWTFSQNKMFERALAVYDKDTPDRWHNVAKAVGGKTVEEVKRHYDILVEDLINIETGRVPLPNYKTFESNSRSINDFDTRYITKYLYMMLSIYFDNHSSDFEKFSQKVLVSYISLV", "soluble"),
    ("MQSAYSFLPQVIAHRGSSGQAPENTLASLHLAGQQGIKWVEIDVMLSGDGIPVIFHDDYLSRTTDGDGLIYKTPLAELKQLDAGSWKGQEYQQETIPTLLEAIEVISQYGMGLNLELKPCEGLEEETIAASVEVLKQHWPQDLPLLFSSFNYFALVSAKALWPEIARGYNVSAIPSAWQERLEHLDCAGLHIHQSFFDVQQVSDIKAAGYKVLAFTINDESLALKLYNQGLDAVFSDYPQKIQSAIDSHIN", "soluble"),
    ("MTTTQDWIMIGGYGPESYNQQSSYQRALLEAAKDKMTEAISANLDLDLISNRFIVADFGCASGPNTFVAVQNIIDAVEEKYLRETGQNPEDNIEFQVLFNDLRINDFNTLFQTLPPGRRYFSAGVPGSFFNRVLPKQSFHIAVMSYAFLFTSKIPKGIMDRDSPLWNKDMQCTGFNPAVKKAYLEQYSIDTKNLLDARAEELMPGGLMLLLGSCMRDGVKMSETLKGTVMDFIGESLNDLAQKGVTEQEKVDTFKTSIYFAEQGEIRQIIEENGKFTIEAFEDIIHSKNEFPLDPKTLAISFKALYGAFISAHFGIEVMRKAFELVEVKAREQISRLHKVKPGMQYLIVLRKN", "soluble"),
    ("MGSDKIHHHHHHMQFERISTEQKKLSLIQTFLHQNALKLDEQIEYFVVGYNDNEQIVVCGGLAGNIIKCVAIDESLRGSGVALQLITELVDLAYTLKRPHLFIYTKPEYATLFKSCGFYIISDANPYVVLLENSATRLQKQCSLWEKMRVDGNRIGSIVMNANPFTLGHRYLIEQALQQCDHLHLFIVGEDASQFSYTERFEMIQQGIFDLSNITLHSGSDYIISRATFPNYFLKDQLITDESYFEIDLKLFRLHIAQALGITHRFVGTELNCPVTAEYNRQMHYWLMDAEMNAPKINVIEIPRKTASNHIISASTVRKHLAEKNWAQLAEFVPMTTLNYLQKCGRF", "not soluble"),
    ("MGSDKIHHHHHHMTEGISIAVLDNDSWSLRAIARWIDGSSPLYHVIWQTTSAAEAIHRCIYTNDKPNVLLLDMALNDATGISVCTQIRKRTADIGIIGITAYDPERYKTDLALAGGQALIAKENLAHVCNKVLPIVAQGKSAEPNSFPTAKQAHDILAEQPSSFSQIKQLSPRELQVLRLYTQNNNTSEIASQLGISSNTVFSYIHRVSKKIGTKNRSEIIRLCKKYDIL", "not soluble"),
    ("MKSRYLLFFLPLIVAKYTSAATMQPFHSPEESVNSQFYLPPPPGNDDPAFRYDKEAYFKGYAIKGSPRWKQAAEDADISVENIARIFSPVVGAKISPKDTPETWNMLQNLLKVGGYYATASAKKYYMRTRPFVLFNHSTCRPEDENTLRKDGSYPSGHTAYSTLLALVLSQARPERAQELARRGWEFGQSRVICGAHWQSDVDAGRYVGAVEFARLQTIPAFQKSLAKVREELNDKNNLLSKEERPELNY", "soluble"),
    ("MKIVTTVQEMQHITKELRASGKSIGFVPTMGYLHEGHATLLRKAREENEIVVLSVFVNPLQFGPNEDLDRYPRDIDRDENVAKENGVDYLFYPSVEEMYPAEQTTTVEVVKRTDVLCGKQRPGHFAGVATVLMKLFNITLPTRAYFGMKDAQQVAVIEGFVADFNIPVIIVPVDIVREEDGLAKSSRNVYLSQKERKEAPHLYRSLCMAKERIEAGERNAEIITTLVKEYIETYTKGTVDYADLYAYPSLQVVDQIEGRIILAIAVKFENVRLIDNITLTVK", "not soluble"),
    ("MSLDYNNITEALQAFRTEKAYRHAPLRSCFFDMDGVLFDSMPAHARSWVEAAGECGIAAEPLDFYRWEGQKGSDTIKILFERGYGRLPTEKEIADMYGRKSQLFALYNSGNVIDDAPALVSDVCDRGLRIMLVTGSSQTDILQRLQRSYGDNFSPANMVTGADVHRGKPHPEPYLKALECVGMSPSEAFVVENAPLGVRAAVDAGIFTIAVNTGCLPDADLWDAGASLVLPSMAVLRSLLGELLTESLSSSAEGHHHHHH", "soluble"),
    ("MGHHHHHHSHMAATAAVSPSDYLQPAASTTQDSQPSPLALLAATCSKIGPPAVEAAVTPPAPPQPTPRKLVPIKPAPLPLSPGKNSFGILSSKGNILQIQGSQLSASYPGGQLVFAIQNPTMINKGTRSNANIQYQAVPQIQASNSQTIQVQPNLTNQIQIIPGTNQAIITPSPSSHKPVPIKPAPIQKSSTTTTPVQSGANVVKLTGGGGNVTLTLPVNNLVNASDTGAPTQLLTASCQTGMLNSTRMFLFLAFINVL", "not soluble"),
    ("DQNAYHSIRTLLKSPTTLGEVKEHITHALTITPTKGSVINAFEHMWGYFKKQCTQYEKQHSRELKALYIENQIDYFELLSFLKNLADKYAVEYLQQSTILNITK", "not soluble"),
]

Turning now to a further record.
Incoming: Fill blank: measured soluble on expression in E. coli of the sequence MAHHHHHHMGTLEAQTQGPGSMAIDPNSIGAVTEPMLFEWTDRDTLLYAIGVGAGTGDLAFTTENSHGIDQQVLPTYAVICCPAFGAAAKVGTFNPAALLHGSQGIRLHAPLPAAGKLSVVTEVADIQDKGEGKNAIVVLRGRGCDPESGSLVAETLTTLVLRGQGGFGGARGERPAAPEFPDRHPDARIDMPTREDQALIYRLSGDRNPLHSDPWFATQLAGFPKPILHGLCTYGVAGRALVAELGGGVAANITSIAARFTKPVFPGETLSTVIWRTEPGRAVFRTEVAGSDGAEARVVLDDGAVEYVAG is ____.
Outgoing: soluble
